Hello, the source for this data is paper PMC7305236, in case you need it.

# Target: atypical chemokine receptor ACKR3 (formerly CXCR7) (human) (UniProt P25106)
# Sequence (P25106 whole entry): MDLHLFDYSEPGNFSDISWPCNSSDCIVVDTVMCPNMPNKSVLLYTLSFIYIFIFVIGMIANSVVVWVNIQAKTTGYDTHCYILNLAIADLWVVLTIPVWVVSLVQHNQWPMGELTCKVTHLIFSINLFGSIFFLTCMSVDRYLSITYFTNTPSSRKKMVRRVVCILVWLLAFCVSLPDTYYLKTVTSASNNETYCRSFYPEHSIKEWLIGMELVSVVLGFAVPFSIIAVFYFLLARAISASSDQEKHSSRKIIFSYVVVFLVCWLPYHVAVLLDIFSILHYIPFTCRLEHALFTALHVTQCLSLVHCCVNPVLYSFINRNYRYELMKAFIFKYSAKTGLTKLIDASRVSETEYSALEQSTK
No end group written: not given here.
Doc: threshold 5000 nM (exclusive). Items with Supplementary Table 4: EC50 of β-arrestin-1 recruitment to ACKR3, U87 cells beneath it return rule met; others return rule not met.

Completed entries (count: 6):
{"columns": ["Binder", "Assigned Category"],
 "data": [
  ["YSGFMRRV-NH2 [adrenorphin-derived peptide YSGFMRRV]", "rule not met"],
  ["YGGFMRKV-NH2 [adrenorphin-derived peptide YGGFMRKV]", "rule not met"],
  ["YGGFMRRL-NH2 [adrenorphin-derived peptide YGGFMRRL]", "rule met"],
  ["YGGFMRRQ-NH2 [adrenorphin-derived peptide YGGFMRRQ]", "rule met"],
  ["YGGFMRRF-NH2 [adrenorphin-derived peptide YGGFMRRF]", "rule met"],
  ["YGGFMRRA-NH2 [adrenorphin-derived peptide YGGFMRRA]", "rule met"]
]}

Is 5000 nM strictly greater than the binder's reported Supplementary Table 4: EC50 of β-arrestin-1 recruitment to ACKR3, U87 cells? binder: `YGGFMRRVA-NH2`
rule met

Quick check: Supplementary Table 4: EC50 of β-arrestin-1 recruitment to ACKR3, U87 cells of YGGFMRRVC-NH2 (also: dimer of two chains) [adrenorphin-derived peptide (…)2] under 5000 nM?
rule met

Please state whether Supplementary Table 4: EC50 of β-arrestin-1 recruitment to ACKR3, U87 cells is below 5000 nM for YGAFMRRV-NH2 [adrenorphin-derived peptide YGAFMRRV]
rule met

Say whether its Supplementary Table 4: EC50 of β-arrestin-1 recruitment to ACKR3, U87 cells is strictly beneath 5000 nM. Entry: `AYGGFMRRV-NH2`
rule met

Determine whether this binder shows Supplementary Table 4: EC50 of β-arrestin-1 recruitment to ACKR3, U87 cells lower than 5000 nM (ties excluded): `YGGFMRRVR-NH2`
rule met

Report whether reported Supplementary Table 4: EC50 of β-arrestin-1 recruitment to ACKR3, U87 cells is lower than 5000 nM (strictly) for AGGFMRRV-NH2 [adrenorphin-derived peptide AGGFMRRV]
rule not met
